Measured IC50, listed per entry for reference.
Target: human Src enzyme (Homo sapiens)
Construct: purchased Carna Biosciences, Inc. 08-173
Sequence (P12931 whole entry): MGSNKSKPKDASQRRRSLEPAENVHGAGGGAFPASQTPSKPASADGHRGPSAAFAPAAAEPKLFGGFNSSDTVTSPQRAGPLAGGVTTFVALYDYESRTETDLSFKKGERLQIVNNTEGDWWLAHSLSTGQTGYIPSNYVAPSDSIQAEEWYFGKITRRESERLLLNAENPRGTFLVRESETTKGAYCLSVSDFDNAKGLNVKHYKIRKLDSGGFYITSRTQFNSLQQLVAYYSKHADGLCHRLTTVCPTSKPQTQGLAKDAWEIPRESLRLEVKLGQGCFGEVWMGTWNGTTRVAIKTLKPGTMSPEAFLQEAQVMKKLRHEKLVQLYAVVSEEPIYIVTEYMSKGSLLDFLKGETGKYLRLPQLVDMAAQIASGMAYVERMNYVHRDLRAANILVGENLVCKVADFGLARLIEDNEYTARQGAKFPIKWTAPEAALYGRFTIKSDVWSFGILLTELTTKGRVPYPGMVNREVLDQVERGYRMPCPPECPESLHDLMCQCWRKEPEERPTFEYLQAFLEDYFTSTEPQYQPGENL
Test: Src enzyme inhibitory activity (time-resolved fluorometry, biotinylated peptide phosphorylation)
Assay type: biochemical
Conditions: biotinylated peptide phosphorylation, read-out: SRC_IC50
Use µM as the unit, but write only the number.

Below, each entry is followed by its recorded IC50 result.
1) Cc1cc(Oc2ccccc2F)ccc1-n1ncc(C(=O)c2cc3cc(OC(F)F)c(C4CCN(C(=O)CN)CC4)cc3[nH]2)c1N : 0.029
2) Cc1cc2cc(C(=O)c3cnn(-c4cnc(Oc5ccccc5F)cc4C)c3N)[nH]c2cc1NS(=O)(=O)c1cccc(F)n1 : 0.35
3) Cc1cc(Oc2c(F)cccc2F)ncc1-n1ncc(C(=O)c2cc3cc(F)c(NS(=O)(=O)CCCF)cc3[nH]2)c1N : 0.043

Query: Would you kindly share the measured IC50 for `Cc1cc(Oc2c(F)cccc2F)ncc1-n1ncc(C(=O)c2cc3cc(OC(F)F)c(C4CCN(C(=O)OC(C)(C)C)CC4)cc3[nH]2)c1N` ?
Response: 0.09
